biological target: NAMPT (Homo sapiens); assay: Time-Resolved Fluorescence Resonance Energy Transfer (TR-FRET) Binding Assay of NAMPT; settings: 6.8 nM NAMPT, 200 nM probe, equilibrated 3 hours, no substrates
Sequence (P43490 whole entry): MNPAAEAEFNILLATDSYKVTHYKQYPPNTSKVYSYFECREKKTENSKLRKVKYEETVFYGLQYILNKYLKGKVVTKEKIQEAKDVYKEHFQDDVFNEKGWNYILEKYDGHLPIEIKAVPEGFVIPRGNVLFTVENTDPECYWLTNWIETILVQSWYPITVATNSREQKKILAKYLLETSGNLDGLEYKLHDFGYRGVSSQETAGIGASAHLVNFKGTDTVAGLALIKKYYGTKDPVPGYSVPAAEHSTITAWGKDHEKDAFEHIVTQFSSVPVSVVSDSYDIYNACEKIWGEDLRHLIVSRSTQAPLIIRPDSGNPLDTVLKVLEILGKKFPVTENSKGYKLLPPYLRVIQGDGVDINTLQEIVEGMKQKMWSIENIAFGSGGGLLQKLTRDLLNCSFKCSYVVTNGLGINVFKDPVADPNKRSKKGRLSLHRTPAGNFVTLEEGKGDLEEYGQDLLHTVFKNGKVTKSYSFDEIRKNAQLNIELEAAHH
parameter: IC50 (µM)

Here is how some molecules turned out for IC50.
IC50 for CC(C)(C)OC(=O)N1CCC(c2ccc(NC(=O)N3CC(c4cnccc4Cl)C3)cc2)CC1 [Example 113] ?
0.0758

IC50 for CCC(C)(C)CN1CC(c2ccc(NC(=O)N3CC(c4cccnc4)C3)cc2)C1 [Example 257] ?
0.598

IC50 for O=C(Nc1ccc(C2CCN(C(=O)C3CC3)C2)cc1)N1CC(c2cccnc2)C1 (centres unmarked) [Example 73] ?
0.156

IC50 for CC(C)(C)CCN1CC(c2ccc(NC(=O)N3CC(c4cccnc4)C3)cc2)C1 [Example 247] ?
0.871

IC50 for O=C(CN1CCOCC1)N1CC[C@@H](Oc2ccc(NC(=O)N3CC(c4cccnc4)C3)cc2)C1 [Example 302] ?
0.337

a = CCCC(=O)N1CC(Oc2ccc(NC(=O)N3CC(c4cccnc4)C3)cc2)C1 [Example 129]
b = COCC(=O)N1CCC(c2ccc(NC(=O)N3CC(c4cccnc4)C3)cc2)CC1 [Example 184]
Form field 'greater IC50' accepts a or b ; which applies? Indicate your choice by writing its label.
a
(a: 0.04 µM, b: 0.0185 µM)

Provenance of the data: patent US9296723B2
